Provide the recorded MFI for the entries that follow.
assayed.system: T1, mouse SEMA4D, full length, on CHO-K1 cells (CHO-K1 mSEMA4D) (mouse, UniProt O09126 24-861)
T1 construct: whole, on cells; also called murine SEMA4D recombinant cells
T1 sequence (looked up): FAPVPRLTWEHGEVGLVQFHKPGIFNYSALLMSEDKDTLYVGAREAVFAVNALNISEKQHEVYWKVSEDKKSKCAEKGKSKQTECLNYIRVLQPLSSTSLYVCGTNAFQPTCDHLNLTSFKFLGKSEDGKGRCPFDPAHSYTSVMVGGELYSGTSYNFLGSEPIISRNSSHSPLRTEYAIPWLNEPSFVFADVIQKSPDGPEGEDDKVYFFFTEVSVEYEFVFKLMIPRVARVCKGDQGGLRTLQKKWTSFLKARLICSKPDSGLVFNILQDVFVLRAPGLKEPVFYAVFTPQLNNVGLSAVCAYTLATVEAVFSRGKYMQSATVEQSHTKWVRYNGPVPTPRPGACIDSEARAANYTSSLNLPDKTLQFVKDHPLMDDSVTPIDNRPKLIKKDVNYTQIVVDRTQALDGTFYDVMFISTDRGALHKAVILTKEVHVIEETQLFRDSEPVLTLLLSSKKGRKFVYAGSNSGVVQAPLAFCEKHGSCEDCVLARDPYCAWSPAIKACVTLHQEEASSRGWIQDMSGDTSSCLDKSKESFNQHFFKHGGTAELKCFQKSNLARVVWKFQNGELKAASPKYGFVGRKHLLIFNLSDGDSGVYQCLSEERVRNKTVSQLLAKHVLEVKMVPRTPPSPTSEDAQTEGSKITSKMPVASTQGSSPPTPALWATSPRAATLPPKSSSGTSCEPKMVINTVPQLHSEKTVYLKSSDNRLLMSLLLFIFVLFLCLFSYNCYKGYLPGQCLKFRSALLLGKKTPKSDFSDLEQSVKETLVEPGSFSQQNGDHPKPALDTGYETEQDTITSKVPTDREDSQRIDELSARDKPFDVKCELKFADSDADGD
experiment.notes: FACS, CHO-K1 mSEMA4D cells; Ab 0.107 nM
Give bare numbers.

Consider the worked cases shown below.
{"binder": "32C8F10 (antibody, V domains shown, Mouse monoclonal antibody purified from hybridoma supernatant on protein A) VH: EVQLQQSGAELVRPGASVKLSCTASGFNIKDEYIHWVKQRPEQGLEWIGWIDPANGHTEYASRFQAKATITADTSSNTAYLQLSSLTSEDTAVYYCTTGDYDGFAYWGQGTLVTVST VL: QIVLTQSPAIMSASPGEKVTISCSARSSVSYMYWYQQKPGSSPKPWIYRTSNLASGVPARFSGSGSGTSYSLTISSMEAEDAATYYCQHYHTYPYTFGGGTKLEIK", "reported.result": 30.2}
{"binder": "37F11F9 (antibody, V domains shown, Mouse monoclonal antibody purified from hybridoma supernatant on protein A) VH: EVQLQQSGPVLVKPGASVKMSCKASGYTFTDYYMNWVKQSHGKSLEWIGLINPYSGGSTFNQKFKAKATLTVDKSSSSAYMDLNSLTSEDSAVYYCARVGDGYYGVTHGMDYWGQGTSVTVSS VL: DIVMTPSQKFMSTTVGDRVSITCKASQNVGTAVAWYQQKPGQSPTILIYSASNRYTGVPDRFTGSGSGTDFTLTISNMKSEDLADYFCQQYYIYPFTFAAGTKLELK", "reported.result": 29.7}
{"binder": "31G10C5 (antibody, V domains shown, Mouse monoclonal antibody purified from hybridoma supernatant on protein A) VH: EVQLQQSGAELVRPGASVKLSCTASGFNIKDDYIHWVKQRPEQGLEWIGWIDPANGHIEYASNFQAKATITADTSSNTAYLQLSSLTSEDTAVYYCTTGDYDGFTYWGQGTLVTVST VL: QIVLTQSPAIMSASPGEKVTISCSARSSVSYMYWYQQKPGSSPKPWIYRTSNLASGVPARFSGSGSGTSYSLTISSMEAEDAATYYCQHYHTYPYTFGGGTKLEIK", "reported.result": 29.6}

From here, focus on the item given below.
Asked: For the binder 37C4F7 (antibody, V domains shown, Mouse monoclonal antibody purified from hybridoma supernatant on protein A) VH: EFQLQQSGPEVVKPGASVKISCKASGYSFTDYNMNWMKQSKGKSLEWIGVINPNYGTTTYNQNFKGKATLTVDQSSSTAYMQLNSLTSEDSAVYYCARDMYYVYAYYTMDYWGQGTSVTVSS VL: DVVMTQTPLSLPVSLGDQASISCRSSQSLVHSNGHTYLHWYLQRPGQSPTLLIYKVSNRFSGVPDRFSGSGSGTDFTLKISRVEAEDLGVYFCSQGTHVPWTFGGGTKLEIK , what MFI is on record?
Given back: 30.1

Attribution: patent US20220073608A1
